Molecular target: cloned human SERT receptor (Homo sapiens, UniProt P31645)
Sequence (P31645 whole entry): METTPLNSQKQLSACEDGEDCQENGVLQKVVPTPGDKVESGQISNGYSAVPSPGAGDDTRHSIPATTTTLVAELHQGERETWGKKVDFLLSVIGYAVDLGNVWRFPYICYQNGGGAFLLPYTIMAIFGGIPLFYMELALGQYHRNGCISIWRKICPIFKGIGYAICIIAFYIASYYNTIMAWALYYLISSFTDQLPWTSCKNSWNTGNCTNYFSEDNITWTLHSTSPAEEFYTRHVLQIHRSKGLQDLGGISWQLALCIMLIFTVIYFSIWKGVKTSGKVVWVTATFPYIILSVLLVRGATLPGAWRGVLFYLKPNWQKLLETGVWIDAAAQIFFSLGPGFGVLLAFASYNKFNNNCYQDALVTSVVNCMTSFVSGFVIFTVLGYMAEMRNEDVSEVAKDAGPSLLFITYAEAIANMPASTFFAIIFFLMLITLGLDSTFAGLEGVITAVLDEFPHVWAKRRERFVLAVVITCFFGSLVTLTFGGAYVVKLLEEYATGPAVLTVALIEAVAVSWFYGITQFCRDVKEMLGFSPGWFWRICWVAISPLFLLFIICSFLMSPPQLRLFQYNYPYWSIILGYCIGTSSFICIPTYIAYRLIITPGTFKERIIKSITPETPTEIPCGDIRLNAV
Test: Determination of Ki at SERT receptor (SPA binding, [3H]-Citalopram)
Conditions: Ki hSERT, HEK293 recombinant cells; [3H]-Citalopram 2 nM
Counter-ions that a name gives are not always drawn.
observable: Ki (µM)
Please respond with the number in µM and leave the unit unwritten.

Prompt: Please supply the value of reported Ki for the item O=C1C[C@@H]2C[C@H]3C[C@H]3N2C(=O)N1CCCCN1CCN(c2nsc3ccccc23)CC1 [Example 11, oxalate]
Completion: 1.28

----------
Target: cloned human 5-HT2A receptor (Homo sapiens)
Construct: expressed in transfected cells; host or cells: CHO-K1
Sequence (P28223 whole entry): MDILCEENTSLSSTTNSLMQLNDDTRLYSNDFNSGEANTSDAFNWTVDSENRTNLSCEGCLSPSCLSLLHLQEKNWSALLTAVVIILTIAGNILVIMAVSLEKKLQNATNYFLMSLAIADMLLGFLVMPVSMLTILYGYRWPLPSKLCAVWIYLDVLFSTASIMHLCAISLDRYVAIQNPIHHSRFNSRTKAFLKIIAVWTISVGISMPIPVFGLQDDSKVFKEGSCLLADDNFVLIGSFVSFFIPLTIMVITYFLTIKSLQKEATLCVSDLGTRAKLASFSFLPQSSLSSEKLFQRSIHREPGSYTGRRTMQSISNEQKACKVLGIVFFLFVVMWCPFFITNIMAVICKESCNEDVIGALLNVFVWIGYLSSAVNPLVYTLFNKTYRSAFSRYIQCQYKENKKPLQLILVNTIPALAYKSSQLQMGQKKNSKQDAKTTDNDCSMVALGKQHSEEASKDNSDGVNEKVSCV
Assay: Determination of Ki at 5-HT2A receptor (radioligand binding, [3H]-Ketanserine)
Settings: CHO-K1 recombinant cells; [3H]-Ketanserine 1.25 nM; read-out: Ki h5-HT2A
Counter-ions that a name gives are not always drawn.
observable: Ki (nM)
Please respond with the number in nM and leave the unit unwritten.

For orientation, consider the following solved cases.
molecule	observedMeasurement
CC(C)N1CCN2C(=O)N(CCCCN3CCN(c4nsc5ccccc45)CC3)C(=O)C[C@H]2C1 [Example 40, fumarate]	1.6
O=C1C[C@@H]2CCCCN2C(=O)N1CCCCN1CCC(c2c[nH]c3ccc(F)cc23)CC1 [Example 15]	53.6
O=C1C[C@@H]2C[C@H](F)CN2C(=O)N1CCCCN1CCN(c2nsc3ccccc23)CC1 [Example 9, oxalate]	2.49
CC(=O)N1CCN2C(=O)N(CCCCN3CCN(c4nsc5ccccc45)CC3)C(=O)C[C@@H]2C1 [Example 38, fumarate]	2.2
O=C1C[C@@H]2CCCN2C(=O)N1CCCCN1CCN(c2cccc3sccc23)CC1 [Example 4, oxalate]	4.24
O=C1C[C@@H]2CCCN2C(=O)N1CCCN1CCC(c2c[nH]c3ccc(F)cc23)CC1 [Example 25]	195

Now, please, on to the next molecule.
Prompt: State, for cloned human 5-HT2A receptor (Homo sapiens), measured Ki of the molecule listed here: O=C1C[C@@H]2CCCN2C(=O)N1CCCCN1CCC(c2noc3cc(F)ccc23)CC1 [Example 5]
Completion: 0.7

----------
Assay: Rodent pharmacokinetic study
Format: in vivo, Male Wistar rats
Conditions: rat, plasma; intravenous (bolus) 1 mg/kg; male Wistar rats; mean ± S.D, n = 3
Structures can show the parent of a compound that is named as a salt.
Item-by-item account of clearance
The reply should consist of the numeric value with the unit placed after it.

compound	observable	observedMeasurement
O=C1C[C@H]2CCCN2C(=O)N1C[C@H]1CCCC[C@H]1CN1CCN(c2nsc3ccccc23)CC1 [Example 27, oxalate]	clearance	45 mL/min/kg
O=C1C[C@@H]2C[C@H]3C[C@H]3N2C(=O)N1CCCCN1CCN(c2nsc3ccccc23)CC1 [Example 11, oxalate]	clearance	41 mL/min/kg
O=C1C[C@@H]2CCCN2C(=O)N1CCCCN1CCN(c2nsc3ccccc23)CC1 [Example 2, oxalate]	clearance	30 mL/min/kg

Now, please, on to the next compound.
Prompt: Please supply the value of reported clearance for the item O=C1C[C@@H]2CCCN2C(=O)N1CCCCN1CCC(c2noc3cc(F)ccc23)CC1 [Example 5]
Completion: 74 mL/min/kg

----------
Assay: Rodent pharmacokinetic study
Format: in vivo, Male Wistar rats
Settings: rat, plasma; intravenous (bolus) 1 mg/kg; male Wistar rats; mean ± S.D, n = 3
Structures can show the parent of a compound that is named as a salt.
observable: half-life (h)
Please respond with the number in h and leave the unit unwritten.

For orientation, consider the following solved cases.
compound	unitAbbrev	half-life
O=C1C[C@@H]2CCCN2C(=O)N1CCCCN1CCC(c2noc3cc(F)ccc23)CC1	h	0.5
O=C1C[C@@H]2C[C@H]3C[C@H]3N2C(=O)N1CCCCN1CCN(c2nsc3ccccc23)CC1 [Example 11, oxalate]	h	1.3
O=C1C[C@H]2CCCN2C(=O)N1C[C@H]1CCCC[C@H]1CN1CCC(c2noc3cc(F)ccc23)CC1 [Example 29, oxalate]	h	1
O=C1C[C@@H]2C[C@H](F)CN2C(=O)N1CCCCN1CCN(c2nsc3ccccc23)CC1 [Example 9, oxalate]	h	1.8
O=C1C[C@@H]2CCCN2C(=O)N1CCCCN1CCN(c2cccc3sccc23)CC1 [Example 4, oxalate]	h	0.8

Prompt: Please supply the value of reported half-life for the item O=C1C[C@@H]2CCCN2C(=O)N1CCCCN1CCN(c2nsc3ccccc23)CC1 [Example 2, oxalate]
Completion: 2

Prompt: Please supply the value of reported half-life for the item O=C1C[C@H]2CCCN2C(=O)N1C[C@H]1CCCC[C@H]1CN1CCN(c2nsc3ccccc23)CC1 [Example 27, oxalate]
Completion: 2.4
